Biological target: γ-secretase complex (Homo sapiens, UniProt P49768)
Assay: APP-C99 counter assay (GSI reporter assay)
Format: cell-based
Conditions: 14p APP assay DR; Notch inhibitor controls, no bottom constraint named; read-out: approximated IC50
Experimental: To this end, we used a previously established reporter gene-based GSI assay (APP-C99) (Fig. 3A), which measures γ-secretase activity through cleavage of amyloid precursor protein (APP), another protein processed by the γ-secretase complex[24] […] A DMSO plate was read before measuring luciferase activity of compound spotted plates. […] The area-under-the-curve (AUC) was calculated on dose–response curves using Graphpad Prism.
assay_endpoint: pIC50
When answering, recall that pIC50 equals minus log10 of the concentration in mol/L, and write that number alone.

Reported pIC50 ( C[C@H](NC(=O)Cc1cc(F)cc(F)c1)C(=O)N[C@H](C(=O)OC(C)(C)C)c1ccccc1 [DAPT, reference compound] ) = 5.28
